All values here come from ChEMBL document CHEMBL4495565.

Test: in vitro
Details: chlorocebus sabaeus, VERO-E6 cells (Vero C1008), uninfected, CC50
Structures can show the parent of a compound that is named as a salt.
parameter_measured: CC50 at 48 h

Identify CC50 at 48 h associated with the compound CC(C)(C)c1cc(/C=C(\C#N)C(N)=S)cc(C(C)(C)C)c1O [TYRPHOSTIN AG 879] > 33 µM

Read off the recorded CC50 at 48 h for CN1CCN(C2CCN(C(=O)Nc3cc(Oc4ccc(NC(=O)C5(C(=O)Nc6ccc(F)cc6)CC5)c(F)c4)ccn3)CC2)CC1 [GOLVATINIB] > 33 µM

Read off the recorded CC50 at 48 h for O=C(c1ccc(OCCN2CCCCC2)cc1)c1c(-c2ccc(O)cc2)sc2cc(O)ccc12 [RALOXIFENE HYDROCHLORIDE] > 33 µM

---

Assignment: determine reported CC50 at 48 h for the given compounds.
Experiment: in vitro
Conditions: chlorocebus sabaeus, vero c1008, CC50
Counter-ions that a name gives are not always drawn.

Provide measured CC50 at 48 h value, entry: CCN(CC)CCOc1ccc(C(=C(Cl)c2ccccc2)c2ccccc2)cc1 [CLOMIPHENE CITRATE] > 33 µM

Dear colleague, please send me the reported CC50 at 48 h for O=C(C1CC1)N1CC[C@@H](Cc2n[nH]c(=O)n2-c2ccc(-c3ccc4occc4c3)cc2)C1 when you can. > 33 µM

Tell me its CC50 at 48 h given O=C(Nc1ccc([N+](=O)[O-])cc1Cl)c1cc(Cl)ccc1O [NICLOSAMIDE] as the entry. > 33 µM

---

Would you mind telling me the reported CC50 at 48 h of each entry?
Assay: in vitro
Settings: chlorocebus sabaeus, VERO-E6 cells (Vero C1008), uninfected, CC50

Using the record for N=C(Nc1ccc(I)cc1)NC1C2CC3CC(C2)CC1C3 (stereo not given) , state its measured CC50 at 48 h. > 33 µM

Name the recorded CC50 at 48 h of the molecule listed here: C[C@H]1Cc2c([nH]c3cc(Cl)c(F)cc23)[C@@]2(N1)C(=O)Nc1ccc(Cl)cc12 [CIPARGAMIN] > 33 µM

Give the reported value of CC50 at 48 h for this record: COc1cc2c(NC3CCN(C(C)C)CC3)nc(N3CCC(F)(F)CC3)nc2cc1OCCCN1CCCC1 > 33 µM

Name the recorded CC50 at 48 h of the molecule listed here: OCCNC1CCCc2c1[nH]c1ccc(-c3ccccc3)cc21 (stereo not given) > 33 µM

Please give the documented CC50 at 48 h of Nc1c[nH]c(=O)c2cc(-c3ccccc3)sc12 > 33 µM

---

Assay: in vitro
Conditions: chlorocebus sabaeus, VERO-E6 cells (Vero C1008), uninfected, CC50
parameter_measured: log10 of CC50 at 48 h (log10 of the value in µM)
log10 CC50 at 48 h, µM

Using the record for CN(Cc1cnc2nc(N)nc(N)c2n1)c1ccc(C(=O)N[C@@H](CCC(=O)O)C(=O)O)cc1 [METHOTREXATE] , state its measured log10 of CC50 at 48 h. -1.30

For the compound O=C(CCCN1CCC2(CC1)C(=O)N(Cc1cccc(F)c1)CN2c1ccccc1)c1ccc(F)cc1 , report log10 of CC50 at 48 h. 1.44

Return reported log10 of CC50 at 48 h. Input compound: CCCCOCCOc1ccc(-c2ccc3c(c2)/C=C(/C(=O)Nc2ccc([S@@+]([O-])Cc4cncn4CCC)cc2)CCCN3CC(C)C)cc1 1.07

Please give measured log10 of CC50 at 48 h of the following entry: CC(C)(C)C(=O)/C(=C/c1cccc([N+](=O)[O-])c1)n1cncn1 0.73

Identify the reported log10 of CC50 at 48 h for the following entry. Cc1cc(N2C[C@@H](C)N[C@@H](C)C2)ncc1-c1ccc(-c2nc3c(ccn3C)c(=O)[nH]2)cc1 0.85

Return log10 of CC50 at 48 h (reported value) for this compound: COc1ccccc1[C@H](Cn1c(=O)n(C(C)(C)C(=O)O)c(=O)c2c(C)c(-c3ncco3)sc21)OC1CCOCC1 -0.96

Tell me log10 of CC50 at 48 h reported for COc1ccc(-c2c[nH]c3nccc(-c4ccsc4)c23)c(OC)c1 -0.09

In one line, give reported log10 of CC50 at 48 h of the entry Cc1[nH]c(/C=C2\C(=O)Nc3ccc(S(=O)(=O)N(C)c4cccc(Cl)c4)cc32)c(C)c1C(=O)N1CCN(C)CC1 . 1.02

State, in one line, measured log10 of CC50 at 48 h of Cc1ccc(Oc2nc3cc(-c4ccc(-c5ccccc5)cc4)c(Cl)cc3[nH]2)cc1C(=O)O -1.52

Name the recorded log10 of CC50 at 48 h of the compound listed here: CC(C)(O)CNc1ncc(-c2ccnc(Nc3ccnc(Cl)c3)n2)c(CC2CC2)n1 1.43

---

Assay: in vitro
Conditions: chlorocebus sabaeus, VERO-E6 cells, Selectivity index
Consider the following compounds; for each one, report its selectivity ratio.
Lab note: jot the number down without any unit.

Return selectivity ratio for the following compound: CC(C)C[C@H](NC(=O)[C@@H](NC(=O)c1cccc(-c2ccccc2)n1)[C@@H](C)O)B(O)O [DELANZOMIB] 0.35

Return selectivity ratio (reported value) for this compound: Cc1c(CN2CCN(C(=O)[C@H](C)O)CC2)sc2c(N3CCOCC3)nc(-c3cnc(N)nc3)nc12 [APITOLISIB] 0.22

Give the value of selectivity ratio reported for the following: CC(C)[C@H]1c2ccc(F)cc2CC[C@@]1(CCN(C)CCCc1nc2ccccc2[nH]1)OC(=O)C1CC1 0.99

---

Test: in vitro
Settings: chlorocebus sabaeus, VERO-E6 cells (Vero C1008), uninfected, CC50
Where a name gives a salt, the structure may show the parent alone.
parameter_measured: CC50 at 48 h

# return recorded CC50 at 48 h for input CN1CCN(CCCN2c3ccccc3Sc3ccc(C(F)(F)F)cc32)CC1 [TRIFLUOPERAZINE HYDROCHLORIDE] > 33 µM

Name the recorded CC50 at 48 h of the item Cn1cc(-c2ccncc2)c(-c2ccc(OCc3ccc4ccccc4n3)cc2)n1 [MARDEPODECT] in your answer. > 33 µM

Write down CC50 at 48 h measured for item CCN1CCN(Cc2ccc(-c3cc4c(N[C@H](C)c5ccccc5)ncnc4[nH]3)cc2)CC1 [AEE-788] > 33 µM
